src = patent US20230381281A1

Target: human GCG receptor (Homo sapiens, UniProt P47871)
Construct: expressed in transfected cells; host or cells: Chinese hamster ovary (CHO)
Sequence (P47871 26-477): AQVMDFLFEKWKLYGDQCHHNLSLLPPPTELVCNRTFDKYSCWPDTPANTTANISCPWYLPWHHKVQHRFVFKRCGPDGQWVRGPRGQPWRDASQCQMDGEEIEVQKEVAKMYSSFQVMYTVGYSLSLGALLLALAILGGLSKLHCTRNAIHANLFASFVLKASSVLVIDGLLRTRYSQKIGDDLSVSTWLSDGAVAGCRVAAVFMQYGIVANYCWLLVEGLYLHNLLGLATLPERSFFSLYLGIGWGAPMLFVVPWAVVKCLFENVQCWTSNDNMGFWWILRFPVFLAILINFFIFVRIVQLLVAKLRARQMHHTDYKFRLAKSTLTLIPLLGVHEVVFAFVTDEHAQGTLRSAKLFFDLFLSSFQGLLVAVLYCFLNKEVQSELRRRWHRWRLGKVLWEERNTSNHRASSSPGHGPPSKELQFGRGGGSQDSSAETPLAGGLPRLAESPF
Test: In vitro cAMP activity in human GCG receptor-expressing CHO cells (LANCE cAMP kit)
Assay type: cell-based
Details: statement in words in the description
Bridge positions count the residues as written; N and C are the ends. Square brackets hold non-standard residues; d marks the D form. Ends that are not written are not given here. Aib = CC(C)(N)C(=O)O

| SUBSTANCE | activity on the glucagon receptor |
| --- | --- |
| 97 (Y[Aib]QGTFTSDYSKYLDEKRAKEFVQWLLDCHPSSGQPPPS; bridge 16-20) [compound 97] | very high activity |
| 43 (Y[Aib]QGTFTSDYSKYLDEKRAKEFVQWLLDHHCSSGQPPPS; bridge 16-20) [compound 43] | very high activity |
| 42 (Y[Aib]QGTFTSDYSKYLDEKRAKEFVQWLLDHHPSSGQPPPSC; bridge 16-20) [compound 42] | very high activity |
| 96 (Y[Aib]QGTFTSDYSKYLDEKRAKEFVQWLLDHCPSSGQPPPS; bridge 16-20) [compound 96] | very high activity |
